# target: TACE (Homo sapiens, UniProt P78536)
# Sequence (P78536 215-824): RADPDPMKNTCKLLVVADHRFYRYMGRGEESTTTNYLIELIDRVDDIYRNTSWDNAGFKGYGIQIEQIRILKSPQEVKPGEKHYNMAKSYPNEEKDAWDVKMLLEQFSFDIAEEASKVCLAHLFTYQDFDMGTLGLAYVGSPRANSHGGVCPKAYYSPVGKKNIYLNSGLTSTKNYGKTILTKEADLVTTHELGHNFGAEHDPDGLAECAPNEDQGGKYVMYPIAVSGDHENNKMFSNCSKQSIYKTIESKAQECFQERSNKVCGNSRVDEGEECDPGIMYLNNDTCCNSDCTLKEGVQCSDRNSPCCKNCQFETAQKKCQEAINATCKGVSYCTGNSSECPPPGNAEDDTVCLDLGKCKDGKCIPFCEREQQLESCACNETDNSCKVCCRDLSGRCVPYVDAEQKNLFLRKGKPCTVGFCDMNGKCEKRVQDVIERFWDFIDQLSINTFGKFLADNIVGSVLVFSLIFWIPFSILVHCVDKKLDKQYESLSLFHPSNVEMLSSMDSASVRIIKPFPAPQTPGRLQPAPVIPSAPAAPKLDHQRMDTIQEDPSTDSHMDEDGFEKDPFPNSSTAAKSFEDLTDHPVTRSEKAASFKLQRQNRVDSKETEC
pIC50: −log10 of the molar value.
List of pIC50 values.
property.measured: pIC50

substance_smiles=CC#CCOc1ccc(S(=O)(=O)Nc2c(C(=O)NO)cc(OC)nc2OC)cc1 experimental_result=7.36
substance_smiles=CC#CCOc1ccc(S(=O)(=O)N(C)c2c(C(=O)NO)cc(OC)nc2OC)cc1 experimental_result=7.96
